Data origin: ChEMBL document CHEMBL1201862

test system: UACC-257; experiment: NCI tumour cell line growth inhibition, 48 h
Activity calls are given as the source filed them. No stated cut-off is given here; in the data, active = GI50 up to about 1.1 µM and inactive = higher.
Please go through the items and note down their GI50.

May I ask what GI50 has been recorded for `COc1ccc(NC(=O)CSc2nnc(-c3ccc(NC(C)=O)cc3)o2)cc1` ?
21.5 µM (inactive)

Repeat with `C/C(=N\Nc1nc2ccccc2s1)c1ccncn1`
0.719 µM (active)

Repeat with `Nc1ccccc1Sc1ccc(Cl)cc1`
23.2 µM (inactive)

Repeat with `c1ccc2c(c1)ccc1cc3cc(NCCCCNc4ccc5nc6c(ccc7ccccc76)cc5c4)ccc3nc12`
1.72 µM (inactive)

Repeat with O=C1CC2(CCCc3sccc32)C(=O)N1 (stereo not given)
> 100 µM (inactive)

Repeat with `Cc1cccc2nc3cc(O)cc(O)c3c(O)c12`
> 10 µM (inactive)

Repeat with `CCc1cccc(CC)c1NC(=O)C1=C(C)NC(C)=C(C(=O)Nc2c(CC)cccc2CC)C1c1ccc([N+](=O)[O-])cc1`
15.4 µM (inactive)

Repeat with C=C1C(=O)C([Si](C)(C)C)=C2C=C(C)C3(CC3)C12C (stereo not given)
17.9 µM (inactive)

Repeat with COC(=O)C(/C(=N/N)C(=O)Nc1cc(Cl)c(Cl)cc1Cl)c1nc2ccc(Cl)cc2nc1O (stereo not given)
> 100 µM (inactive)

Repeat with `O=c1c(Cc2ccc(Cl)cc2)nnc2sc(-c3ccc(-c4ccc(Cl)cc4Cl)o3)nn12`
> 100 µM (inactive)
